# tested on: UniProt:P56560
# Sequence (P56560 whole entry, looked up): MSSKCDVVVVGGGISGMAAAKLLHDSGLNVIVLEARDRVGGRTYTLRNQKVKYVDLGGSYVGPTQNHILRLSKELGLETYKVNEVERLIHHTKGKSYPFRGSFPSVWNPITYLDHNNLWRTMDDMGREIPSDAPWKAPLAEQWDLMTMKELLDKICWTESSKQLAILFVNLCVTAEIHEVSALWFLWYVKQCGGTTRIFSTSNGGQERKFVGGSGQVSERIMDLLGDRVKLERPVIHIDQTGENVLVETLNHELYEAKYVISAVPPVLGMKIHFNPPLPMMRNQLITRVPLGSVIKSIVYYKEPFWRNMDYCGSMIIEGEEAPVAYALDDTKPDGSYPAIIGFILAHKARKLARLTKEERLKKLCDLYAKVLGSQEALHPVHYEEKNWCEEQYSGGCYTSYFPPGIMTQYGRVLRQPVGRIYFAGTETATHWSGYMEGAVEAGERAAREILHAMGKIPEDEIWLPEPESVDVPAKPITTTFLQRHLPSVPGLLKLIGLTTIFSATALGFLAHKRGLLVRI
readout name: pIC50
pIC50 here is simply -log10 of the concentration when that concentration is written in mol/L.

Query the reported pIC50 for UniProt:P56560; item: `CCOC(=O)C1=Cc2cc(Cl)ccc2CC1=O`
6.00
